Please go through the items and note down their activation.
system tested: Cellular tumor antigen p53 (Homo sapiens) (UniProt P04637)
Sequence (P04637 whole entry, looked up): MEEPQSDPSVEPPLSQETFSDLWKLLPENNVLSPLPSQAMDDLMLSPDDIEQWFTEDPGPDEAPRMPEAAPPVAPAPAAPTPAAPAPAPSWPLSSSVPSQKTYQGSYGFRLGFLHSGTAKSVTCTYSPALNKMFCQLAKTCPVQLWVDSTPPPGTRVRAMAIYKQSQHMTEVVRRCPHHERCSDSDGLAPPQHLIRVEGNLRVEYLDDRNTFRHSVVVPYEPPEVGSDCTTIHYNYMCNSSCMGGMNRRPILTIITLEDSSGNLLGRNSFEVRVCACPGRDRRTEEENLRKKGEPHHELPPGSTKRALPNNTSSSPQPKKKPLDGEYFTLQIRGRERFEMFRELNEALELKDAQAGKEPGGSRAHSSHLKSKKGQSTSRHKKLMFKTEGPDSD
assay notes: Primary qHTS for small molecule compounds that upregulate eGFP-tagged delta133p53alpha (in N-terminal) cells. (AID 2060322);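 note: cells pre-induced with doxycycline then dosed without doxycycline; 0% = DMSO vehicle and 100% = reference activator; nearly all actives have a fitted effect of over 75% in size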
run parameters: NCI-H358 eGFP-delta133p53alpha fluorescence, 24 h; stronger effect = higher value
Records with an inconclusive call do not appear.
Numbers only, in %.

molecule | unit annotation | activation
CN(C)C(=O)Nc1cccc(-c2ccc(N(C)C)cc2)c1 | % | -14.8
CC1(C)SC2C(NC(=O)[C@H](C(=O)O)c3ccsc3)C(=O)N2C1C(=O)O (stereo partly drawn) | % | 3.67
CCOc1ccc(S(=O)(=O)n2c(C)nc3ccccc32)cc1 | % | -4.33
COc1ccc(-c2cc(C(F)F)nn2-c2ccc(S(N)(=O)=O)cc2)cc1F | % | -21.8
C=C(C)[C@@H](C)[C@H]1O[C@]23C[C@]4(CO2)C(CCC2[C@@]5(C)CC[C@H](O[C@@H]6OC[C@H](O)[C@H](O[C@@H]7O[C@H](CO)[C@@H](O)[C@H](O)[C@H]7O)[C@H]6O[C@@H]6O[C@@H](CO)[C@H](O)[C@H]6O)C(C)(C)C5CC[C@]24C)C3[C@@](C)(O)[C@@H]1OC(C)=O (stereo partly drawn) | % | -7.63
Cc1cc(C=c2sc3nc4ccccc4n3c2=O)c(C)n1-c1ccccc1 | % | -10.2
CCCCCCn1c(=O)c2c(ncn2C)n(C)c1=O | % | -5.08

Field: next molecule
GET /value?item= COC(=O)CCCCC(CCSS/C(CCO)=C(\C)N(C=O)Cc1cnc(C)nc1N)SC(C)=O (stereo not drawn) &field=activation returns 10

----------
assay notes: qHTS for Inhibitors of the Aldehyde Dehydrogenase Family (ALDH1A2, ALDH1A3, ALDH2, ALDH3A1) (AID 2061307); note: nearly all actives have a fitted effect of over 50% in size; for Potency: test system not described further here; potency is the fitted concentration of half-maximal effect
run parameters: ALDH inhibition qHTS; series mostly up to 50.3 µM
Results filed as inconclusive are left out. Calls of active or inactive are those of the source. Calls follow the shape of the dose curve; as a rule, active = well fitted inhibition curve with a large enough effect; inconclusive = small, poorly fitted or top-dose-only effect; inactive = no such curve, though single readings can be large or run the other way.
measurement kind: Potency

compound | measurement
COc1ccnc(NC(=S)N2CCN(c3cccc(C(F)(F)F)c3)CC2)c1 | 8.91 µM (active)
O=C(c1c(F)ccc(NS(=O)(=O)N2CC[C@@H](F)C2)c1F)c1c[nH]c2ncc(-c3cnc(C4CC4)nc3)cc12 | 22.4 µM (active)
COc1cc(/C=C/C(=O)OC[C@H]2O[C@@H](OC3OC=C(C(=O)O)C4C(O)CC(C)(O)C34)[C@H](O)[C@@H](O)[C@@H]2O)cc(OC)c1O (stereo not given in full) | inactive
CC(=O)c1ccc(N2CCN(S(=O)(=O)c3ccc4c(c3)C(C)(C)C(=O)N4)CC2)cc1 | inactive
Cc1cc2c(s1)c1cnn(Cc3c(Cl)ccc(C)c3F)c(=O)c1n2C | inactive
N[C@H]1Cc2ccccc2N(O)C1=O | inactive
Cc1ccc(OCCn2c(CCNC(=O)c3ccc(N)cc3)nc3ccccc32)cc1 | 0.896 µM (active)
O=C(O)c1ccc(O)c2ncc(N3CCCN(C4CCCC4)CC3)cc12 | inactive

Below are 2 compounds. Give each one its Potency.
1. N[C@@H](CCNCc1ccc(Cl)cc1)C(=O)N1CCCCC1
2. O=c1c2ccccc2nc2sc(Nc3cccc(N4CCNCC4)c3)nn12

Reply:
1: inactive; 2: inactive

Quick batch: Potency for everything below.
1. CCOC(=O)N1CCC(CN(Cc2ccc(Cl)cc2)Cc2ccc([N+](=O)[O-])s2)C1 (stereo not given)
2. FC(F)(F)c1cc(N2CCN(C(=S)Nc3cc(Cl)ccn3)CC2)cc(C(F)(F)F)c1
3. CN(C)c1ccc(NC(=O)NS(=O)(=O)c2ccc(Cl)cc2)cc1
4. O=C1c2ccccc2C(=O)N1c1ncccc1O
5. CC1(C)S[C@@H]2[C@H](NC(=O)[C@H](NC(=O)N3CCN(S(C)(=O)=O)C3=O)c3ccccc3)C(=O)N2[C@H]1C(=O)O
6. NC(=O)C1CCN(c2nc(-c3ccc([N+](=O)[O-])cc3)cs2)CC1
7. Cc1ccc(CNc2ccc(N3CCN(C)CC3)cc2)cc1

Reply:
["inactive", "inactive", "6.34 µM (active)", "inactive", "inactive", "11.3 µM (active)", "inactive"]

Go through the items and report each one's Potency.
1. COc1cc(CC2COC(c3ccc(OC4OC(CO)C(O)C(O)C4O)c(OC)c3)C2CO)ccc1O (stereo not given)
2. CC(=O)c1ccc(NC(=O)CSc2ccc3nc(-c4ccccc4)cn3n2)cc1
3. Cn1nnnc1Sc1ncnc2scc(-c3cnc(N)nc3)c12

Reply:
1. inactive
2. 0.0576 µM (active)
3. inactive
